assay: Pharmacokinetic profile / in vivo conversion after oral administration to SCID mice (plasma, LC-MS/MS); design: species or system female SCID mice; conditions: female, mouse, po, Drug from Example 20 administered 25 mg/kg p.o., lipid formulation (PEG 300/ethanol/Phosal 50PG 30/10/60), read-out: Tmax, compound measured: Drug from Example 20
Quantity name: Tmax (h)
Answer with a number only, understood to be in h.

Lookup: May I ask what Tmax has been recorded for Cc1c(N(C(=O)c2cc(-c3cc(Cl)ccc3C(=O)N3Cc4ccccc4C[C@H]3CN3CCOCC3)n(C)c2C)c2ccc(O)cc2)cc(C#N)n1C [Drug from Example 20] ?
Found: 2

###

test: Pharmacokinetic profile / in vivo conversion after oral administration to SCID mice (plasma, LC-MS/MS); design: species or system female SCID mice; conditions: female, mouse, po, Drug from Example 1 administered 100 mg/kg p.o., lipid formulation, read-out: AUCt, compound measured: Drug from Example 1
Quantity name: AUC(0-t)
The answer consists of two parts: a number and, after it, its unit.

Lookup: Which AUC(0-t) reading was recorded for the molecule `O=C(c1cc(-c2cc3c(cc2C(=O)N2Cc4ccccc4C[C@H]2CN2CCOCC2)OCO3)n2c1CCCC2)N(c1ccccc1)c1ccc(O)cc1` ?
Found: 148 µg·h/mL

###

assay: Pharmacokinetic profile / in vivo conversion after oral administration to SCID mice (plasma, LC-MS/MS); parameters: species or system female SCID mice; details: female, mouse, po, Drug from Example 20 administered 3 mg/kg p.o., lipid formulation (PEG 300/ethanol/Phosal 50PG 30/10/60), read-out: Tmax, compound measured: Drug from Example 20
Quantity name: Tmax (h)
Field: numeric (h). Do not append units.

Lookup: Can you share its Tmax? I mean this compound: `Cc1c(N(C(=O)c2cc(-c3cc(Cl)ccc3C(=O)N3Cc4ccccc4C[C@H]3CN3CCOCC3)n(C)c2C)c2ccc(O)cc2)cc(C#N)n1C`
Found: 1

###

test: Pharmacokinetic profile / in vivo conversion after oral administration to SCID mice (plasma, LC-MS/MS); set-up: species or system female SCID mice; settings: female, mouse, po, Drug from Example 25 administered 3 mg/kg p.o., lipid formulation (PEG 300/ethanol/Phosal 50PG 30/10/60), read-out: Cmax, compound measured: Drug from Example 25
Quantity name: Cmax (µg/mL)
Give the number; µg/mL is assumed, so skip it.

Lookup: Name the reported Cmax value associated with the molecule Cc1c(N(C(=O)c2cc(-c3cc(F)ccc3C(=O)N3Cc4ccccc4C[C@H]3CN3CCOCC3)n(C)c2C)c2ccc(O)cc2)cc(C#N)n1C [Drug from Example 25]
Found: 0.033

###

assay: Solubility in aqueous medium buffered to physiological pH (phosphate 0.33M, pH 7.4); type: physicochemical; settings: phosphate 0.33M, pH = 7.4; 50 μM
Quantity name: Solubility at 50 μM

Known Solubility at 50 μM results, listed for orientation:
>>> test_result("Cc1c(N(C(=O)c2cc(-c3cc(Cl)ccc3C(=O)N3Cc4ccccc4C[C@H]3CN3CCOCC3)n(C)c2C)c2ccc(OP(=O)([O-])[O-])cc2)cc(C#N)n1C.[Na+].[Na+] [Example 20]")
"Soluble"
>>> test_result("O=C(c1cc(-c2cc3c(cc2C(=O)N2Cc4ccccc4C[C@H]2CN2CCOCC2)OCO3)n2c1CCCC2)N(c1ccccc1)c1ccc(O)cc1 [Drug from Example 1]")
"Insoluble"
>>> test_result("Cc1c(N(C(=O)c2cc(-c3cc(F)ccc3C(=O)N3Cc4ccccc4C[C@H]3CN3CCOCC3)n(C)c2C)c2ccc(O)cc2)cc(C#N)n1C [Drug from Example 25]")
"Insoluble"
>>> test_result("Cc1c(N(C(=O)c2cc(-c3cc(Cl)ccc3C(=O)N3Cc4ccccc4C[C@H]3CN3CCOCC3)n(C)c2C)c2ccc(O)cc2)cc(C#N)n1C [Drug from Example 20]")
"Insoluble"
>>> test_result("[2H]C([2H])([2H])n1cc(N(C(=O)c2cc(-c3cc(Cl)ccc3C(=O)N3Cc4ccccc4C[C@H]3CN3CCOCC3)n(C)c2C)c2ccc(O)cc2)cn1 [Drug from Example 19]")
"Soluble"

Lookup: State the recorded Solubility at 50 μM for this entry: O=C(c1cc(-c2cc3c(cc2C(=O)N2Cc4ccccc4C[C@H]2CN2CCOCC2)OCO3)n2c1CCCC2)N(c1ccccc1)c1ccc(OP(=O)([O-])[O-])cc1.[Na+].[Na+] [Example 1]
Found: Soluble

Lookup: Query (molecule): Cc1c(N(C(=O)c2cc(-c3cc(F)ccc3C(=O)N3Cc4ccccc4C[C@H]3CN3CCOCC3)n(C)c2C)c2ccc(OP(=O)([O-])[O-])cc2)cc(C#N)n1C.[Na+].[Na+] [Example 25] ; field requested: Solubility at 50 μM
Found: Soluble
